Values from patent US20070142392A1

- Protocol Description: in vivo
- Applied Conditions: albino, guinea pig, ip, 12.5 mg/kg
Value Kind: Cmax

Input: GET /values?readout=Cmax&item= CO[C@H]1/C=C/O[C@@]2(C)Oc3c(C)c(O)c4c(O)c(c(/C=N/N5CCN(C)CC5)c(O)c4c3C2=O)NC(=O)/C(C)=C\C=C\[C@H](C)[C@H](O)[C@@H](C)[C@@H](O)[C@@H](C)[C@H](OC(C)=O)[C@@H]1C [Rifampin, rifampin, reference compound]
Output: 980 ng/mL

###

Would you kindly list MIC E. coli for each of these compounds?
- Test system: E. coli
- Protocol Description: MIC values, E. coli (Tables 1-4)
- Assay type: cell-based
One number for each entry, in µg/mL.

Worked cases, answers included:
| Compound | MIC E. coli [µg/mL] |
| --- | --- |
| COC1C=COC2(C)Oc3c(C)c(O)c4c(=O)c(c5oc6cc(N7CC8CCCNC8C7)cc(O)c6nc-5c4c3C2=O)NC(=O)C(C)=CC=CC(C)C(O)C(C)C(O)C(C)C(OC(C)=O)C1C (centres unmarked) [Compound 12] | 8 |
| CO[C@H]1/C=C/O[C@@]2(C)Oc3c(C)c(O)c4c(=O)c(c5oc6cc(N7CCN(C(=O)C8CC8)CC7)cc(O)c6nc-5c4c3C2=O)NC(=O)/C(C)=C\C=C\[C@H](C)[C@H](O)[C@@H](C)[C@@H](O)[C@@H](C)[C@H](O)[C@@H]1C | 8 |
| CO[C@H]1/C=C/O[C@@]2(C)Oc3c(C)c(O)c4c(=O)c(c5n(C)c6ccccc6nc-5c4c3C2=O)NC(=O)/C(C)=C\C=C\[C@H](C)[C@H](O)[C@@H](C)[C@@H](O)[C@@H](C)[C@H](O)[C@@H]1C | 8 |
| CO[C@H]1/C=C/O[C@@]2(C)Oc3c(C)c(O)c4c(=O)c(c5oc6cc(N7CC8CCC(C7)N8)cc(O)c6nc-5c4c3C2=O)NC(=O)/C(C)=C\C=C\[C@H](C)[C@H](O)[C@@H](C)[C@@H](O)[C@@H](C)[C@H](O)[C@@H]1C [Compound 146] | 4 |

Input: GET /values?readout=MIC E. coli&item= CO[C@H]1/C=C/O[C@@]2(C)Oc3c(C)c(O)c4c(=O)c(c5oc6cc(N7CCC(F)CC7)ccc6nc-5c4c3C2=O)NC(=O)/C(C)=C\C=C\[C@H](C)[C@H](O)[C@@H](C)[C@@H](O)[C@@H](C)[C@H](O)[C@@H]1C
Output: 8
